# activity score (negative = inhibition) values compiled below
Target: Glycogen synthase kinase-3 beta (Homo sapiens)
Assay: blockers of GSK3B enzyme activity – biochemical, cell-free homogeneous, HTS, primary screen (AID 2097);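 further: 0% = median DMSO wells and -100% = median GW8510 positive control wells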
Conditions: GST-GSK3beta kinase, ADP-Glo luminescence, 60 min; at 10 µM; stronger effect = lower value
Out of some 300,000 compounds screened, about 120 (0.04%) were called active. The sample holds actives, similar compounds and a random draw of the others, so the mix is not that of the screen.

Worked examples, 4 molecules total:
>  <mol>
CC(=O)C1=C(C)NC(C)=C(C(C)=O)C1c1cn(-c2ccccc2)nc1-c1cccs1

>  <activity score (negative = inhibition)>
-1.7% (inactive)

$$$$
>  <mol>
CC(C)NS(=O)(=O)c1ccc(OCC(=O)NC2CCCCCC2)cc1

>  <activity score (negative = inhibition)>
1.95% (inactive)

$$$$
>  <mol>
C1=C(N2CCOCC2)/C(=C/c2nc3ccccc3[nH]2)CC1

>  <activity score (negative = inhibition)>
-1.13% (inactive)

$$$$
>  <mol>
CCc1nn(CCCC(=O)Nc2ccc(C)cc2C)c(=O)c2cc3occc3n12

>  <activity score (negative = inhibition)>
2.31% (inactive)

$$$$

Data request: Param readout= activity score (negative = inhibition); system= Glycogen synthase kinase-3 beta (Homo sapiens); entry= `Cc1cc(C)n2nc(C(=O)N(C)C(c3ccccc3)c3ccccc3)nc2n1` ; returns value.
Data returned: -1.04% (inactive)

Data request: Record: `C=CCOc1c2ccc(C(=O)N(CC)c3ccc(OC)cc3)cc2nn1C`
Data returned: 0.746% (inactive)

Data request: Record: `CCn1cc(C(=O)NCCC(=O)NCCO)c(=O)c2cc3c(cc21)OCO3`
Data returned: -2.21% (inactive)

Data request: Record: `O=c1[nH]c2ccccc2n2c(-c3ccccc3)nnc12`
Data returned: -0.961% (inactive)

Data request: Record: `COc1ccc([N+](=O)[O-])cc1NC(=O)COC(=O)/C=C/c1ccco1`
Data returned: 1.89% (inactive)

Data request: Record: `Nc1nc(CC(=O)CSc2ccc(Cl)cc2)nc(Nc2ccc(F)cc2)n1`
Data returned: 0.55% (inactive)

These measurements were taken from PubChem BioAssay AID2097.
